Taken from patent US12685735B2.

target: BRG-1 (Homo sapiens); test: ATPase catalytic activity assay of BRG-1 (ADP-Glo); type: biochemical; details: ATPase catalytic activity, ADP-Glo; read-out: BRG1 Max % Inhibition
Sequence (P51532 whole entry): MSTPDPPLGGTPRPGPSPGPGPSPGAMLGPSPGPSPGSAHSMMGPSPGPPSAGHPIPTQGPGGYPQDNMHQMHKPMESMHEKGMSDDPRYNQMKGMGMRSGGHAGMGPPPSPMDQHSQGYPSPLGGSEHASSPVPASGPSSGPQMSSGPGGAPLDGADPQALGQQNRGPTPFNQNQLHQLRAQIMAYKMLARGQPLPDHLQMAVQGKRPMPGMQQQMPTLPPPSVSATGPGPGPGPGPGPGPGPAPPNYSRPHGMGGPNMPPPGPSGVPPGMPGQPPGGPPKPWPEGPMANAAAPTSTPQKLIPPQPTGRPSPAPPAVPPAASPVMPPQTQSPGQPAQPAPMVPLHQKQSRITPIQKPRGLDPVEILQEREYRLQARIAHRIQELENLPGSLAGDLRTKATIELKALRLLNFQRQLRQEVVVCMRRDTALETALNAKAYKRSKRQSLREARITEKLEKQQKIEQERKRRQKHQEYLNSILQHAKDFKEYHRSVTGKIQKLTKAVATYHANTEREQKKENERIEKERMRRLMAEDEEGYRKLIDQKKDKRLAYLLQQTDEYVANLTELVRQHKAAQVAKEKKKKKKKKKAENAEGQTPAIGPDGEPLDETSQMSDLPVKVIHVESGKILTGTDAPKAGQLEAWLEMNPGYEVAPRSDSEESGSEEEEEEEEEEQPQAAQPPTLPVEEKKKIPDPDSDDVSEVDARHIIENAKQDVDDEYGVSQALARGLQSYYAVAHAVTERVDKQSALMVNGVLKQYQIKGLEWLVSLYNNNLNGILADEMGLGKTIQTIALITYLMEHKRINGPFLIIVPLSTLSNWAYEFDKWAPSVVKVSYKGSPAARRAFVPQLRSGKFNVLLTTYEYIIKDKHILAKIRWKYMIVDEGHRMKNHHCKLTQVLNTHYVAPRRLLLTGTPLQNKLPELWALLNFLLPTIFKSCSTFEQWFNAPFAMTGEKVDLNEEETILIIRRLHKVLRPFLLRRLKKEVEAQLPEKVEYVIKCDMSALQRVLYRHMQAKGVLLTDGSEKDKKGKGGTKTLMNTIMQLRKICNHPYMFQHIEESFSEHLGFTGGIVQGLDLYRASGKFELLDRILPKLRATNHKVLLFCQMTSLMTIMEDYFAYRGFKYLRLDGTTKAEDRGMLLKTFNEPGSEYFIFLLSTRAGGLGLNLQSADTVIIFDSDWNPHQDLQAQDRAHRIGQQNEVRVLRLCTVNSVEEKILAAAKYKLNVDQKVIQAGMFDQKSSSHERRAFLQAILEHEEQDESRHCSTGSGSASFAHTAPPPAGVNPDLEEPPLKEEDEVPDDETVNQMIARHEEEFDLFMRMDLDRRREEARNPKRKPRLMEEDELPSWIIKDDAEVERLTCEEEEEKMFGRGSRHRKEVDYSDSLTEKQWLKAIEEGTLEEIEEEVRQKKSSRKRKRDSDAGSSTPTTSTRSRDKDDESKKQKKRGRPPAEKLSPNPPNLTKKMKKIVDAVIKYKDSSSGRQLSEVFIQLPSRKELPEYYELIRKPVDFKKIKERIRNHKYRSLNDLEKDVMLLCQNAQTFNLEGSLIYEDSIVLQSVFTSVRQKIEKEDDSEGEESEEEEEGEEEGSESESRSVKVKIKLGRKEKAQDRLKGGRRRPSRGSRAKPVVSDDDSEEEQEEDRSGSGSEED
Quick reference: Emax of the listed items.

[
  {
    "MOLECULE": "CC(C)S(=O)(=O)c1cccc(C(=O)NCC(=O)Nc2nc(-c3cccc(-c4cccnc4)c3)cs2)c1",
    "OBSERVED VALUE": "> 90%"
  },
  {
    "MOLECULE": "C[C@@H]1CN(c2cccc(-c3csc(NC(=O)CNC(=O)c4cccc([C@]5(F)C[C@H](F)C5)c4)n3)n2)C[C@H](C)O1",
    "OBSERVED VALUE": "> 95%"
  },
  {
    "MOLECULE": "CC(C)(CO)c1cccc(C(=O)NCC(=O)Nc2nc(-c3cccc(N4CCC(O)CC4)c3)cs2)c1",
    "OBSERVED VALUE": "> 80%"
  },
  {
    "MOLECULE": "Cn1ccc2ccc(-c3csc(NC(=O)CNC(=O)c4ccc5c(c4)[C@](C)(F)COC5)n3)cc2c1=O",
    "OBSERVED VALUE": "> 95%"
  }
]

Q: Emax lookup needed for CC(=O)NCc1cccc(-c2cccc(-c3csc(NC(=O)CNC(=O)c4cccc(S(=O)(=O)C(C)C)c4)n3)c2)c1 , thanks.
Ans: > 40%

Q: Moving on to the next molecule: C[C@@H]1CN(c2cccc(-c3csc(NC(=O)CNC(=O)c4cccc([C@@]5(C(F)F)CCOC5)c4)n3)c2)C[C@H](C)O1
Ans: > 95%

Q: Param item: C[C@@H]1CN(c2cccc(-c3csc(NC(=O)CNC(=O)c4ccc5c(c4)[C@](C)(C#N)CCO5)n3)n2)C[C@H](C)O1
Ans: > 95%

Q: Record: Cn1ccc2ccc(-c3csc(NC(=O)CNC(=O)c4ccc5c(c4)[C@](C)(CO)CC5)n3)cc2c1=O
Ans: > 90%

Q: Also, C[C@@H]1CN(c2cccc(-c3csc(NC(=O)CNC(=O)c4cc(C(C)(C)CO)ccc4F)n3)n2)C[C@H](C)O1 please.
Ans: > 60%

Q: Next molecule up: CN1CC=Cc2ccc(C(=O)NCC(=O)Nc3nc(-c4cccc(-c5ccncc5)c4)cs3)cc2S1(=O)=O
Ans: < 30%

Q: Try the molecule O=C(CNC(=O)c1ccc2c(c1)C1(CCNC1=O)CC2)Nc1nc(-c2cccc(-c3ccncc3)c2)cs1 (stereo not drawn)
Ans: > 80%

Q: Next up: CC(C)(CN)c1cccc(C(=O)NCC(=O)Nc2nc(-c3cccc(-c4cc(C#N)cc(CO)c4)c3)cs2)c1
Ans: > 70%

###

target: BRM (Homo sapiens, UniProt P51531); test: ATPase catalytic activity assay of BRM (ADP-Glo); assay type: biochemical
Sequence (P51531 whole entry): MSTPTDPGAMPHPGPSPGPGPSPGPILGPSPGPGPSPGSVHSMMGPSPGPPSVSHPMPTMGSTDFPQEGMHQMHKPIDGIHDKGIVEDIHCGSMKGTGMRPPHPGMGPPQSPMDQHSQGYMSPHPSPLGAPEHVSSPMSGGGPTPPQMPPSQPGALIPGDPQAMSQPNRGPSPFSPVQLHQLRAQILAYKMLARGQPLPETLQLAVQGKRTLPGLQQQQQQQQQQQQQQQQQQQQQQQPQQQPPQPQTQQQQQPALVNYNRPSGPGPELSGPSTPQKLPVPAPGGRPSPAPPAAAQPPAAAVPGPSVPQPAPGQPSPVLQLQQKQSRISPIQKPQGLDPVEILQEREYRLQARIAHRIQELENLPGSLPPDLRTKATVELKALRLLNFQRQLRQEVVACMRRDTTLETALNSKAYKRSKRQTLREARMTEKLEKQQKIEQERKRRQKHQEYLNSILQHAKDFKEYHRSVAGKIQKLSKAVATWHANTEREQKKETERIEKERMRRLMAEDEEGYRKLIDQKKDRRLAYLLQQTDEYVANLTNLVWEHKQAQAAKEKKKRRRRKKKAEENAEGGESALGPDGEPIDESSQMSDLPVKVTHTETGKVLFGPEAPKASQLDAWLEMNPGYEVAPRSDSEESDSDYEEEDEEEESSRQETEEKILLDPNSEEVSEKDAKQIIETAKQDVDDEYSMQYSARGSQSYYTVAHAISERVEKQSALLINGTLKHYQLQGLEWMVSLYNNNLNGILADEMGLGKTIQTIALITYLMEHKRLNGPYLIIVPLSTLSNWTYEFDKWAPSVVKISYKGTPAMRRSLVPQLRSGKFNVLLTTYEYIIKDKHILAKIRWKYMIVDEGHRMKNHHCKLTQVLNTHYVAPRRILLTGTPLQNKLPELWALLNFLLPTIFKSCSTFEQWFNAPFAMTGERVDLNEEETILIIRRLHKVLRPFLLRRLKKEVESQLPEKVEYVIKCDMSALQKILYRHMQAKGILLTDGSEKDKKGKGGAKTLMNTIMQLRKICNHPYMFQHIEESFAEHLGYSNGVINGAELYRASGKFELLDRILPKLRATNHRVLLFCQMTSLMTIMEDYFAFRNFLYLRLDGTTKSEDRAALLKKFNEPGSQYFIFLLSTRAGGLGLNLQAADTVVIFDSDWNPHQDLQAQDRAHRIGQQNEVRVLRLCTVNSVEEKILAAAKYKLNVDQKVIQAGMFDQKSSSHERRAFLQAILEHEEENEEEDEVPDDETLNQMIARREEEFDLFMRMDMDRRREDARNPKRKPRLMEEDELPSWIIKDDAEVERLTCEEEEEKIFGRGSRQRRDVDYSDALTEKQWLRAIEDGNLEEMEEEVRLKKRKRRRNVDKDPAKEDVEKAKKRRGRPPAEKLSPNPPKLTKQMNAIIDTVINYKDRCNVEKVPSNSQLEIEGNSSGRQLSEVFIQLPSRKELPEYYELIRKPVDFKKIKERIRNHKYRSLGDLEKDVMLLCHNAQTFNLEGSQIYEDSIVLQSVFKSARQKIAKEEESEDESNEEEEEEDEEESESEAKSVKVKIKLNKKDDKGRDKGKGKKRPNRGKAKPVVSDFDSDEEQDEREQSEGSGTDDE
OBSERVATION TYPE: BRM Max % Inhibition

[
  {
    "MOLECULE": "C[C@@H]1CN(c2cccc(-c3csc(NC(=O)CNC(=O)c4cccc5c4OCC[C@@]5(C)C#N)n3)c2)C[C@H](C)O1",
    "OBSERVATION TYPE": "BRM Max % Inhibition",
    "OBSERVED VALUE": ">70%"
  },
  {
    "MOLECULE": "Cc1cc(-c2cccc(-c3csc(NC(=O)CNC(=O)c4ccc(Cl)c(C(C)(C)CO)c4)n3)n2)ncn1",
    "OBSERVATION TYPE": "BRM Max % Inhibition",
    "OBSERVED VALUE": ">95%"
  },
  {
    "MOLECULE": "COC1CN(c2cccc(-c3csc(NC(=O)CNC(=O)c4ccc5c(c4)[C@](C)(C#N)COC5)n3)c2)C1",
    "OBSERVATION TYPE": "BRM Max % Inhibition",
    "OBSERVED VALUE": ">95%"
  },
  {
    "MOLECULE": "C[C@@H]1CN(c2cccc(-c3csc(NC(=O)CNC(=O)c4cccc([C@]5(F)C[C@@H](O)C5)c4)n3)c2)C[C@H](C)O1",
    "OBSERVATION TYPE": "BRM Max % Inhibition",
    "OBSERVED VALUE": ">95%"
  }
]

Q: Quick check: BRM Max % Inhibition of CC1(CN)CCc2ccc(C(=O)NCC(=O)Nc3nc(-c4cccc(-c5ccncc5)c4)cs3)cc21 (centres unmarked) ?
Ans: >90%

Q: Thanks! And C[C@@H]1CN(c2cc(F)cc(-c3csc(NC(=O)CNC(=O)c4ccc(F)c(C(C)(C)CO)c4)n3)c2)C[C@H](C)O1 ?
Ans: >95%

Q: Lookup CC1(c2cccc(C(=O)NCC(=O)Nc3nc(-c4cccc(-c5ccncc5)c4)cs3)c2)CCNC1=O (centres unmarked)
Ans: >95%

Q: Next molecule: C[C@@H]1CN(c2cccc(-c3csc(NC(=O)CNC(=O)c4cccc([C@]5(F)C[C@H](F)C5)c4)n3)n2)C[C@H](C)O1
Ans: >95%
